Hello, the source for this data is paper PMC9106665, in case you need it.

target: EcDHFR (Escherichia coli); construct: E. coli DHFR gene (UniProtKB:P0ABQ4) and dfrA1 gene (UniProtKB:A4GRC7) were synthesized and cloned in pET-41a (+) vector; made in house; host or cells: E. coli BL21(DE3); experiment: biochemical; assay type: binding; settings: EcDHFR apo form, Fig. S5a titration
Sequence (P0ABQ4 whole entry): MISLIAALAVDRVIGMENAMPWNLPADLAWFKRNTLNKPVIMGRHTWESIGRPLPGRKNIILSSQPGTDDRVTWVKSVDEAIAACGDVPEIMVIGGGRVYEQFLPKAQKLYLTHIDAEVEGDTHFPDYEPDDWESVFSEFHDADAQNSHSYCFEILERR
Measured endpoint: pKd
// pKd is dimensionless: -log10 of concentration (M)

Return pKd (reported value) for this compound: "NC(=O)C1=CN([C@@H]2O[C@H](COP(=O)(O)OP(=O)(O)OC[C@H]3O[C@@H](n4cnc5c(N)ncnc54)[C@H](OP(=O)(O)O)[C@@H]3O)[C@@H](O)[C@H]2O)C=CC1" 6.18
